The measured values listed here are drawn from PubChem BioAssay AID1645865.

Assay System: UniProt:Q70CQ3
Sequence (Q70CQ3 whole entry, looked up): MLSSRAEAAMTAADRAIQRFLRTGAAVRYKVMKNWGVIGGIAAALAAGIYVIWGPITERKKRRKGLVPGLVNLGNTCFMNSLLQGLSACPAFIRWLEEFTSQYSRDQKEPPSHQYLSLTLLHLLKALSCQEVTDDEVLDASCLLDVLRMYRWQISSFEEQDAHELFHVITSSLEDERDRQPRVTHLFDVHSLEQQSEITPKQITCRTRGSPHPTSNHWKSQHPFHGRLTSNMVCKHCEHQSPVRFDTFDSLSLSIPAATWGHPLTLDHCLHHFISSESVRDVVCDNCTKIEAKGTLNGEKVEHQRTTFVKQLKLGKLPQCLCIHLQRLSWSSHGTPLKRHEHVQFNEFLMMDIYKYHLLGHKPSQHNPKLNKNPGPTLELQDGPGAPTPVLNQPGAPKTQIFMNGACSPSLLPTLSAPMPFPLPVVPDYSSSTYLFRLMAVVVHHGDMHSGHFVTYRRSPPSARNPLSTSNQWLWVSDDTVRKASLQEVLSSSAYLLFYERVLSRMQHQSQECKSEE
Assay: inhibitors of ubiquitin-specific protease 30 deubiquitylating enzyme, concentration dependence, in vitro biochemical, validation of primary hits (AID 1645865)
Measurement Context: purified USP30, Ub-rhodamine cleavage, fluorescence, 2 h
Calls of active or inactive are those of the source.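 Rule for the calls: active = maximal inhibition of the USP30 enzyme reaching 30% or more across the dose series; inactive = the rest.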
Respond using exactly one of the listed classes: 1 (yes) (active), 0 (no) (inactive)

Study these solved cases before continuing.
Compound	Assigned Label
O=C(CNS(=O)(=O)c1ccc(F)cc1)N1CCCC(c2nnc3ccccn23)C1 (stereo unspecified)	0 (no)
Cn1cc2cccc(NC(=O)c3ccc(F)cc3)c2n1	0 (no)
Nc1ccccc1SC(CC(=O)c1ccc(Cl)cc1)c1ccsc1 (stereo unspecified)	0 (no)
O=[N+]([O-])c1ccc(NCC2COc3ccccc3O2)c(Cl)c1 (stereo unspecified)	0 (no)
Cc1nn(-c2ccc(F)cc2)cc1-c1noc(C(=O)NCc2ccccn2)n1	1 (yes)

Let's switch to this compound now.
Q: Just curious, what result did `O=C(COc1cccc2ccc(N3CCC(Cc4ccccc4)CC3)nc12)NCc1ccc(F)cc1` get here?
Ans: 1 (yes)

###

Assay System: Ubiquitin carboxyl-terminal hydrolase 30 (Homo sapiens)
Assay: inhibitors of ubiquitin-specific protease 30 deubiquitylating enzyme, concentration dependence, in vitro biochemical, validation of primary hits (AID 1645865)
Measurement Context: purified USP30, Ub-rhodamine cleavage, fluorescence, 2 h
The source made the active and inactive calls.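 Rule for the calls: active = maximal inhibition of the USP30 enzyme reaching 30% or more across the dose series; inactive = the rest.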
Select the matching outcome among TRUE for active, FALSE for inactive

Example cases with answers are listed next.
Molecule	Assigned Label
Cc1c(-c2nn3c(-c4ccco4)nnc3s2)cccc1[N+](=O)[O-]	TRUE
CC1CCc2c(sc3ncnc(OCc4cccc([N+](=O)[O-])c4)c23)C1 (stereo not drawn)	FALSE
COc1ccc(NC(=O)c2nnn(-c3ccccc3C)c2C)cc1OC	FALSE
Cc1cc(C)c2cc(CN(CCc3ccccc3)C(=O)Nc3ccccc3)c(=O)[nH]c2c1	FALSE
COc1ccc(Cn2c(=O)[nH]c3cc(C(=O)NCCCN4CCN(c5cccc(Cl)c5)CC4)ccc3c2=O)cc1	TRUE

Q: State the result this test recorded for `CSc1nc(SCC(N)=O)c2c3c(sc2n1)COC(C)(C)C3` .
Ans: TRUE

Q: Could you please tell me the result logged for `COc1ccc(-c2nc(-c3nnn(Cc4ccc(F)cc4)c3C)no2)c(OC)c1` in this assay?
Ans: TRUE

Q: Recorded test call requested for `Cc1ccc(NC(=O)Cn2c(-n3nc(C)cc3C)nc3c(c2=O)CCCC3)c(C)c1`
Ans: TRUE

Q: Identify the outcome logged in this assay for the molecule shown: `COc1ccccc1NC(=O)Cn1cc(C(=O)c2ccc(C)cc2)c(=O)c2ccccc21`
Ans: TRUE

Q: Tell me the recorded outcome of this test for `O=C(NC1CCN(Cc2ccccc2)CC1)c1[nH]nc2c1CCc1ccccc1-2` .
Ans: FALSE

Q: Which outcome was entered for the molecule `CC(C)CC(=O)Nc1cc(F)c2nc(N3CCOCC3)ccc2c1` in this test?
Ans: FALSE

Q: Answer briefly: the call reported for `CC(=O)CN1CC2(CCN(Cc3ccc(F)cc3)CC2)COc2ccccc2S1(=O)=O` in this assay.
Ans: FALSE

Q: What was the test verdict on `CCc1cc(C(=O)c2ccc(OC)cc2)c(NC(=O)CN2CCCCC2)s1` ?
Ans: TRUE

Q: Kindly provide the recorded test outcome for the following molecule: `COc1cccc(S(=O)(=O)N2CCn3nc(C(C)(C)C)cc3C2)c1`
Ans: TRUE

Q: Hello, I am checking results. What call was entered for `O=C(COC(=O)c1ccc(CN2CCCC2=O)cc1)c1ccc2c(c1)OCCO2` ?
Ans: FALSE

Q: Please let me know the test result on file for `Cc1ccc(NC(=O)c2ccc(Nc3nnc(C)c4ccccc34)cc2)cc1` .
Ans: TRUE

Q: Which outcome was entered for the molecule `Cc1cccc(NC(=O)Nc2nnc(CC(=O)NCc3ccccc3)s2)c1` in this test?
Ans: TRUE

Q: Hi, do you know how `CC(C)(C)C(=O)Nc1ccc(SCc2nnc(-c3ccccc3)o2)cc1` came out in this test?
Ans: FALSE

Q: Could you check what this test reported for O=C(NCC(c1cccnc1)N1CCc2ccccc2C1)C(=O)Nc1ccc2c(c1)OCO2 (stereo not drawn) ?
Ans: TRUE

Q: // return assay outcome for `Cc1c2c(nc3ccccc13)-c1ccccc1CC2`
Ans: FALSE
